Listed below: pIC50 values for each entry.
# study.target: SHV-1 (Klebsiella pneumoniae, UniProt P0AD64)
# Construct: made in house; host or cells: E. coli
# Sequence (P0AD64 22-286): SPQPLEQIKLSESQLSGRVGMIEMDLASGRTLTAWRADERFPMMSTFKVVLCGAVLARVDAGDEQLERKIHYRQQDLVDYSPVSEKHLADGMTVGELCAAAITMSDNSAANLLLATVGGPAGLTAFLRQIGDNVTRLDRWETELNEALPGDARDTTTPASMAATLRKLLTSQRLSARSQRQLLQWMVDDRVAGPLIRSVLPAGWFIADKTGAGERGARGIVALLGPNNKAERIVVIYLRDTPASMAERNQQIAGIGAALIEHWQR
# protocol: β-lactamase inhibitory activity, determination of IC50 (nitrocefin hydrolysis)
# Type: biochemical
pIC50: −log10 of the molar value.
property.measured: pIC50

[[record]]
compound = "O=C1N2CC=C(c3cnccn3)C(C2)N1OS(=O)(=O)[O-].[Na+] (stereo not shown)"
experimental_result = 8.16

[[record]]
compound = "O=C1N2CC(c3ncco3)=C[C@H](C2)N1OC(F)(F)C(=O)O (racemic)"
experimental_result = 7.89

[[record]]
compound = "O=C1N2CC=C(c3ncco3)C(C2)N1OS(=O)(=O)[O-].[Na+] (stereo not shown)"
experimental_result = 8.08

[[record]]
compound = "O=C1N2CC(c3ncco3)=C[C@H](C2)N1OS(=O)(=O)[O-].[Na+] [Example 44, sulfate]"
experimental_result = 8.22

